# Test method notes: Pharmacokinetic (PK) experiment in rats
# Assay type: in vivo
# Particulars: Sprague-Dawley (SD), rat, plasma, po; male SD rats, fasted; tail vein injection 1 mg/kg and gavage 5 mg/kg; route not given; read-out: T1/2 (half-life) (converted)

Compound	half-life / h
COc1nc2cnc3[nH]ccc3c2n1[C@@H]1CCc2cc(C#N)nn2C1	3.65
N#Cc1cc2n(n1)CC(n1cnc3cnc4[nH]ccc4c31)CC2 (single isomer, unassigned)	1.35

====

# Target or system: UniProtKB P52333
# Sequence (P52333 whole entry): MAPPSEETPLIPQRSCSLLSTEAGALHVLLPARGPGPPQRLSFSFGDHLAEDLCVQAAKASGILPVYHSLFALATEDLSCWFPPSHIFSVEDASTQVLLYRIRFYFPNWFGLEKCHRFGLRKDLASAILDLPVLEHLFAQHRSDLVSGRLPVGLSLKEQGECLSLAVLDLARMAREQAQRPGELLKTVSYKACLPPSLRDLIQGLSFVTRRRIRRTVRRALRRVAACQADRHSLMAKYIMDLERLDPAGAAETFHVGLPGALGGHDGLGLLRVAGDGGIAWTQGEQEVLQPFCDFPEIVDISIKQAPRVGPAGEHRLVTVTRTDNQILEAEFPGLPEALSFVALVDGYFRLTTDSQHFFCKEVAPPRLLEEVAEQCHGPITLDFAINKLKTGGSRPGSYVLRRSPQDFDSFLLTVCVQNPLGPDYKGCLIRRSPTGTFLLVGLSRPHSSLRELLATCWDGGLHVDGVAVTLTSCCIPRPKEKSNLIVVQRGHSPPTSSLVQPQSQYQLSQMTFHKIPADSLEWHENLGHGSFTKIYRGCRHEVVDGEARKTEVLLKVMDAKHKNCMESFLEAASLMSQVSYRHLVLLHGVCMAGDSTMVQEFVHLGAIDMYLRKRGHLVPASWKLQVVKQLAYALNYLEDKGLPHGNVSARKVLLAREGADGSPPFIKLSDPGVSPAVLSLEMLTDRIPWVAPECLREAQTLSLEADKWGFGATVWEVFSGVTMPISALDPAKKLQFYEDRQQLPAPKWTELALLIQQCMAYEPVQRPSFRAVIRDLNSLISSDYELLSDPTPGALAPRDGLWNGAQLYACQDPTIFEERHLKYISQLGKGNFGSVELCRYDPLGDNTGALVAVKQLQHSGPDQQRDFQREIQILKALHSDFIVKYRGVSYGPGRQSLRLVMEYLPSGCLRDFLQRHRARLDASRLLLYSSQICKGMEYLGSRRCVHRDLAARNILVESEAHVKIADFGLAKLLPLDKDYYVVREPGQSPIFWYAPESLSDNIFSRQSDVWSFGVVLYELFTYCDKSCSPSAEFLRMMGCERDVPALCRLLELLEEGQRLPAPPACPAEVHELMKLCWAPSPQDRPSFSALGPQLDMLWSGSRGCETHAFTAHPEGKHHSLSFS
# Test method notes: In vitro activity assay of JAK3 kinase (radiometric, [γ-33P]-ATP)
# Particulars: recombinant human JAK3, 40 min at room temperature
pIC50: −log10 of the molar value.

Compound	pIC50
Cc1nc2cnc3[nH]ccc3c2n1C1CCc2cc(C#N)nn2C1 (single isomer, unassigned)	7.60
C[C@@H](O)c1nc2cnc3[nH]ccc3c2n1[C@@H]1CCc2cc(C#N)nn2C1	6.24
N#Cc1cc2n(n1)CC(n1c(C(F)(F)F)nc3cnc4[nH]ccc4c31)CC2 (single isomer, unassigned)	6.66
COc1nc2cnc3[nH]ccc3c2n1[C@@H]1CCc2cc(C#N)nn2C1	7.56
COc1nc2cnc3[nH]ccc3c2n1[C@H]1CCc2cc(C#N)nn2C1	7.13
C[C@@H](O)c1nc2cnc3[nH]ccc3c2n1[C@H]1CCc2cc(C#N)nn2C1	7.42
N#Cc1cc2n(n1)CC(n1cnc3cnc4[nH]ccc4c31)CC2 (single isomer, unassigned)	7.51
